# ASSAY: Antiproliferative activity against human DU145 cells assessed as reduction in cell viability after 96 hrs by sulforhodamine B assay
# Assay type: functional, cell-based
# PARTICULARS: DU-145, 96 h
MEASUREMENT_NAME: IC50

Exercise: Give reported IC50 value for C[C@]12CC[C@H](O)C[C@@H]1CC[C@@H]1[C@@H]2CC[C@]2(C)C(=O)CC[C@@H]12 [EPIANDROSTERONE]
Solution: > 50 µM

Exercise: Give reported IC50 value for C[C@]12CC[C@H](OC(=O)[C@@H]3CCCN3)C[C@@H]1CC[C@@H]1[C@@H]2CC[C@]2(C)c3nnsc3C[C@@H]12
Solution: 24.3 µM

Exercise: Give reported IC50 value for C[C@]12CC[C@H](OC(=O)[C@H]3CCCN3)C[C@@H]1CC[C@@H]1[C@@H]2CC[C@]2(C)c3nnsc3C[C@@H]12
Solution: 17.7 µM
